systemTested: wild type PRC2 (wtPRC2) complex (Homo sapiens (Human), UniProt O75530)
Sequence (O75530 whole entry): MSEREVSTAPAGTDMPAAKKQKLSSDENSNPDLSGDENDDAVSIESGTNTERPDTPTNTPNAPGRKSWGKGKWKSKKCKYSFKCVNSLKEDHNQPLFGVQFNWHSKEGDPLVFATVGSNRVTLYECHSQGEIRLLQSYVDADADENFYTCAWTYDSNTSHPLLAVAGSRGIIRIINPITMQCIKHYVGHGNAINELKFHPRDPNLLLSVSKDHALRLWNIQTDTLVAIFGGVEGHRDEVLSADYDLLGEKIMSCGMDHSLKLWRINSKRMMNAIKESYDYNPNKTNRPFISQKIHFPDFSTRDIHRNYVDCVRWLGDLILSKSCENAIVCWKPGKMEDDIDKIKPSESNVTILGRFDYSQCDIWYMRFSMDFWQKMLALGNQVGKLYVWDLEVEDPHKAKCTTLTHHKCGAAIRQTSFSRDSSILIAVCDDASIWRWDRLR
Sequence (Q15910 whole entry partner): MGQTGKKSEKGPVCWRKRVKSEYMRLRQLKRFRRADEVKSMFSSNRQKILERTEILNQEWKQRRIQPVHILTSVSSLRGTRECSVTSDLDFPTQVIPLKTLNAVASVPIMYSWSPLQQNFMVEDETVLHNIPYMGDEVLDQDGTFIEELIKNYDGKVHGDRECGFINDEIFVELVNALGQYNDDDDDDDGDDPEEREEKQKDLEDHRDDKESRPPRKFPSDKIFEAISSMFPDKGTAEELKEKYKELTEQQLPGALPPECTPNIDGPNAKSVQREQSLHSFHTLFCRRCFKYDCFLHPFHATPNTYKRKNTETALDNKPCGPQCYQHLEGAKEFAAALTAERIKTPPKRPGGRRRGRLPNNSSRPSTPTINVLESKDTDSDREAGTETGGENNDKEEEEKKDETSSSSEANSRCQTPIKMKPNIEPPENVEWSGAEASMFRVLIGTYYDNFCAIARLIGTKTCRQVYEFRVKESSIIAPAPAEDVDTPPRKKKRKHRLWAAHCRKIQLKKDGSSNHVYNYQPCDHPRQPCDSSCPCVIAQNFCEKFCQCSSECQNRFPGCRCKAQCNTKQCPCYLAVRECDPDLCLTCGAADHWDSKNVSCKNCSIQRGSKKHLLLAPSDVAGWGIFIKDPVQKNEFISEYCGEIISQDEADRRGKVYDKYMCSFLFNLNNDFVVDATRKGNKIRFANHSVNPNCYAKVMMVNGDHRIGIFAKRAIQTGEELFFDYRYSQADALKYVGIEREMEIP
Sequence (Q15022 whole entry partner): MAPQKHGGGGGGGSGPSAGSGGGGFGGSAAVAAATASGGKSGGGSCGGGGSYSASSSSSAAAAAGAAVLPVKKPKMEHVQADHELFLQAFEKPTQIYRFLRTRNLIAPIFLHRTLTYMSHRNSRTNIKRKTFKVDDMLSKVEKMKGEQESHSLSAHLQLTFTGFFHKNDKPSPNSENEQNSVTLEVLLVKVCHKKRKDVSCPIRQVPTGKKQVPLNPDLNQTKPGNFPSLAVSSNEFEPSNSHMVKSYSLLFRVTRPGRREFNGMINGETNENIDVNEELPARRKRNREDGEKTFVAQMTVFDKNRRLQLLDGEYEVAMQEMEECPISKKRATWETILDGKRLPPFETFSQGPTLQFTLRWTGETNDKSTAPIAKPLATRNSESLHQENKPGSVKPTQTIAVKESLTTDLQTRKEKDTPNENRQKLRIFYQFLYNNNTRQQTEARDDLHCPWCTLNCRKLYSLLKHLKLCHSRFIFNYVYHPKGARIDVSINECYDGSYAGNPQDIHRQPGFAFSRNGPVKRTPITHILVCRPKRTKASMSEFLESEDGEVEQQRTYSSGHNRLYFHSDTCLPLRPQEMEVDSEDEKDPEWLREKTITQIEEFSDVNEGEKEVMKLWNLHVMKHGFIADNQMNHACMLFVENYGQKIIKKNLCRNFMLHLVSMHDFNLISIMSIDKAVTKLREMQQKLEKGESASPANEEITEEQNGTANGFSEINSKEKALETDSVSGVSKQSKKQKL
assayRemarks: EED LC-MS assay
assaySetup: read-out: (b) IC50 EED LC-MS Qualified
assayMetric: log10(IC50) (log10 of the value in nM)

- compound: "O=C(c1ccc(-c2cnc(NCc3cccc4c3CCO4)n3cnnc23)cn1)N1CCCC1"
  log10(IC50): 0.94
- compound: "Cc1nc(C2CC2)ncc1-c1cnc(NCc2c(F)ccc3c2CCO3)n2cnnc12"
  log10(IC50): 0.86
- compound: "c1ccc(-c2cnc(NCc3cccc4c3CCO4)n3cnnc23)cc1"
  log10(IC50): 1.68
- compound: "Fc1ccc2c(c1CNc1ncc(-c3cnccc3C(F)(F)F)c3nncn13)CCO2"
  log10(IC50): 1.62
- compound: "Cc1nn(C)cc1-c1cnc(NCc2c(F)ccc3c2CCO3)n2cnnc12"
  log10(IC50): 1.06
- compound: "Cc1cnc(C(F)F)cc1-c1cnc(NCc2c(F)ccc3c2CCO3)n2cnnc12"
  log10(IC50): 1.24
- compound: "Cc1cc(S(C)(=O)=O)ncc1-c1cnc(NCc2c(F)ccc3c2CCO3)n2cnnc12"
  log10(IC50): 0.94
- compound: "CCOc1cc(C)c(-c2cnc(NCc3c(F)ccc4c3CCO4)n3cnnc23)cn1"
  log10(IC50): 0.91
- compound: "Fc1ccc2c(c1CNc1ncc(-c3ccc(N4CCOCC4)nc3)c3nncn13)CCO2"
  log10(IC50): 1.71
- compound: "Cn1cc(-c2cnc(NCc3c(F)ccc4c3CCO4)n3cnnc23)c(C(F)F)n1"
  log10(IC50): 0.98
- compound: "CN1CCN(C(=O)c2ccc(-c3cnc(NCc4c(F)ccc5c4CCO5)n4cnnc34)cc2)CC1"
  log10(IC50): 1.24
- compound: "Cc1cc(S(C)(=O)=O)ccc1-c1cnc(NCc2c(F)ccc3c2CCO3)n2cnnc12"
  log10(IC50): 1.22
- compound: "Cc1ncccc1-c1cnc(NCc2c(F)ccc3c2C(O)CO3)n2cnnc12 (centres unmarked)"
  log10(IC50): 1.70
- compound: "O=C1CN(c2ccc(-c3cnc(NCc4cccc5c4CCO5)n4cnnc34)cn2)CCN1"
  log10(IC50): 1.08
- compound: "Cc1cc(-c2cnc(NCc3c(F)ccc4c3CCO4)n3cnnc23)n(C)n1"
  log10(IC50): 0.91
- compound: "Cc1nn(CCO)cc1-c1cnc(NCc2c(F)ccc3c2CCO3)n2cnnc12"
  log10(IC50): 1.23
- compound: "CC1Cc2c(CNc3ncc(-c4ccc(CN(C)C)cc4)c4nncn34)cccc2O1 (centres unmarked)"
  log10(IC50): 3.26

###

systemTested: wild type PRC2 (wtPRC2) complex (Homo sapiens (Human), UniProt O75530)
assayRemarks: EED LC-MS assay
assaySetup: read-out: (b) IC50 EED LC-MS Qualified
pIC50: −log10 of the molar value.

- compound: "CN(C)C(=O)c1ccc(-c2cnc(NCc3c(F)ccc4c3CCO4)n3cnnc23)cn1 [Example 140]"
  pIC50: 7.26
- compound: "Fc1ccccc1-c1cnc(NCc2c(F)ccc3c2CCO3)n2cnnc12 [Example 94]"
  pIC50: 7.73
- compound: "CS(=O)(=O)c1ccc(-c2cnc(NCc3cccc4occc34)n3cnnc23)cc1 [Example 214]"
  pIC50: 7.65
- compound: "COCCn1nc(C)c(-c2cnc(NCc3cccc4c3CCO4)n3cnnc23)c1C [Example 66]"
  pIC50: 7.35
- compound: "Cc1ccc(-c2cnc(NCc3c(F)ccc4c3CCO4)n3cnnc23)cn1 [Example 57]"
  pIC50: 7.73

###

systemTested: wild type PRC2 (wtPRC2) complex (Homo sapiens (Human), UniProt O75530)
assayRemarks: EED LC-MS assay
assaySetup: read-out: (b) IC50 EED LC-MS Qualified

- compound: "CN(C)c1ccc(-c2cnc(NCc3cccc4c3CCO4)n3cnnc23)cn1"
  IC50 / µM: 0.0197
- compound: "CN(C)c1ncc(-c2cnc(NCc3cccc4c3CCO4)n3cnnc23)cn1"
  IC50 / µM: 0.0347
- compound: "Cc1nc(S(C)(=O)=O)ccc1-c1cnc(NCc2c(F)ccc3c2CCO3)n2cnnc12"
  IC50 / µM: 0.006
- compound: "Cc1nc(C2CC2)ccc1-c1cnc(NCc2c(F)ccc3c2CCO3)n2cnnc12"
  IC50 / µM: 0.0077
- compound: "c1cc(CNc2ncc(-c3cncc(N4CCNCC4)c3)c3nncn23)c2c(c1)OCC2"
  IC50 / µM: 0.0523
- compound: "CCc1cc(C)c(-c2cnc(NCc3c(F)ccc4c3CCO4)n3cnnc23)cn1"
  IC50 / µM: 0.0019
- compound: "OCCn1cc(-c2cnc(NCc3cccc4c3CCO4)n3cnnc23)cn1"
  IC50 / µM: 0.0494
- compound: "CC(C)S(=O)(=O)c1ccc(-c2cnc(NCc3cccc4occc34)n3cnnc23)cc1"
  IC50 / µM: 0.0212
- compound: "Cn1cc(-c2cnc(NCc3c(F)ccc4c3CCO4)n3cnnc23)cn1"
  IC50 / µM: 0.0159
- compound: "CS(=O)(=O)CCOc1cncc(-c2cnc(NCc3cccc4c3CCO4)n3cnnc23)c1"
  IC50 / µM: 0.0341
- compound: "CS(=O)(=O)c1ccc(-c2cnc(NCc3cccc4c3CCO4)n3cnnc23)cc1"
  IC50 / µM: 0.0159
- compound: "Nc1ccc(-c2cnc(NCc3cccc4c3CCO4)n3cnnc23)cn1"
  IC50 / µM: 0.0302
- compound: "Fc1ccc2c(c1CNc1ncc(-c3ccc(Cl)cc3Cl)c3nncn13)CCO2"
  IC50 / µM: 0.0382
- compound: "Cc1ncncc1-c1cnc(NCc2c(F)ccc3c2CCO3)n2cnnc12"
  IC50 / µM: 0.0083
- compound: "COc1ncc(-c2cnc(NCc3c(F)ccc4c3CCO4)n3cnnc23)cn1"
  IC50 / µM: 0.0062
- compound: "Cc1cc(-c2cnc(NCc3cccc4c3CCO4)n3cnnc23)cnc1N1CCOCC1"
  IC50 / µM: 0.0174
- compound: "CC1(C)COC(c2ccc(-c3cnc(NCc4cccc5c4CCO5)n4cnnc34)cn2)=N1"
  IC50 / µM: 0.0136
- compound: "Cc1c(-c2cnc(NCc3c(F)ccc4c3CCO4)n3cnnc23)ccnc1F"
  IC50 / µM: 0.0079
- compound: "Fc1ccc2c(c1CNc1ncc(-c3ccnn3C3CC3)c3nncn13)CCO2"
  IC50 / µM: 0.0126
- compound: "O=C1CN(Cc2ccc(-c3cnc(NCc4cccc5c4CCO5)n4cnnc34)cn2)CCN1"
  IC50 / µM: 0.0223
- compound: "Cc1nn(C2CC2)c(C)c1-c1cnc(NCc2c(F)ccc3c2CCO3)n2cnnc12"
  IC50 / µM: 0.0161
- compound: "Cc1nn(C(C)C)cc1-c1cnc(NCc2cccc3c2CCO3)n2cnnc12"
  IC50 / µM: 0.0309
- compound: "Cc1ncc(-c2cnc(NCc3cccc4c3CCO4)n3cnnc23)cn1"
  IC50 / µM: 0.047
- compound: "Cc1cc(C#N)ccc1-c1cnc(NCc2c(F)ccc3c2CCO3)n2cnnc12"
  IC50 / µM: 0.007
- compound: "Cc1cc(C(=O)N2CCCC2)ncc1-c1cnc(NCc2c(F)ccc3c2CCO3)n2cnnc12"
  IC50 / µM: 0.0137
- compound: "CC(c1ccc(-c2cnc(NCc3cccc4occc34)n3cnnc23)cc1)N1CCCC1 (centres unmarked)"
  IC50 / µM: 0.0214
- compound: "CC(C)n1nccc1-c1cnc(NCc2c(F)ccc3c2CCO3)n2cnnc12"
  IC50 / µM: 0.0178
- compound: "CC1CCCN1c1ccc(-c2cnc(NCc3cccc4c3CCO4)n3cnnc23)cn1 (centres unmarked)"
  IC50 / µM: 0.0132
- compound: "Fc1ccc2c(c1CNc1ncc(-c3cnccc3Cl)c3nncn13)CCO2"
  IC50 / µM: 0.0154
- compound: "Cc1cc(-c2cnc(NCc3cccc4c3CCO4)n3cnnc23)ccc1C(=O)N(C)C"
  IC50 / µM: 0.0128
- compound: "Cc1cc(-c2cnc(NCc3c(F)ccc4c3CCO4)n3cnnc23)ccn1"
  IC50 / µM: 0.0076
- compound: "[O-][n+]1cccc(-c2cnc(NCc3c(F)ccc4c3CCO4)n3cnnc23)c1"
  IC50 / µM: 0.0138
- compound: "CN(C)CCN(C)C(=O)c1ccc(-c2cnc(NCc3cccc4c3CCO4)n3cnnc23)cn1"
  IC50 / µM: 0.0688
- compound: "Fc1ccc2c(c1CNc1ncc(-c3ccc(C(F)(F)F)nc3)c3nncn13)CCO2"
  IC50 / µM: 0.0113
- compound: "CN(C)Cc1ccc(-c2cnc(NCc3c(F)ccc4c3CCO4)n3cnnc23)cc1"
  IC50 / µM: 0.0257

###

Measured log10(IC50), listed per entry for reference.
systemTested: EED (1-441)-His protein (Homo sapiens (Human))
assayMetric: log10(IC50) (log10 of the value in nM)

- recordSmiles: "CN(C)c1ccc(-c2cnc(NCc3cccc4c3CCO4)n3cnnc23)cn1"
  numericResult: 1.11
- recordSmiles: "CN1CCN(C(=O)c2ccc(-c3cnc(NCc4c(F)ccc5c4CCO5)n4cnnc34)cc2)CC1"
  numericResult: 0.97
- recordSmiles: "FC(F)Oc1ccc(-c2cnc(NCc3cccc4c3CCO4)n3cnnc23)cn1"
  numericResult: 2.01
- recordSmiles: "Fc1ccc2c(c1CNc1ncc(-c3cnccn3)c3nncn13)CCO2"
  numericResult: 0.86
- recordSmiles: "Cc1cnccc1-c1cnc(NCc2c(F)ccc3c2CCO3)n2cnnc12"
  numericResult: 0.61
